# Target desc: Human CB2R (Cannabanoid receptor 2) (Homo sapiens (Human), UniProt P34972)
# Sequence (P34972 whole entry): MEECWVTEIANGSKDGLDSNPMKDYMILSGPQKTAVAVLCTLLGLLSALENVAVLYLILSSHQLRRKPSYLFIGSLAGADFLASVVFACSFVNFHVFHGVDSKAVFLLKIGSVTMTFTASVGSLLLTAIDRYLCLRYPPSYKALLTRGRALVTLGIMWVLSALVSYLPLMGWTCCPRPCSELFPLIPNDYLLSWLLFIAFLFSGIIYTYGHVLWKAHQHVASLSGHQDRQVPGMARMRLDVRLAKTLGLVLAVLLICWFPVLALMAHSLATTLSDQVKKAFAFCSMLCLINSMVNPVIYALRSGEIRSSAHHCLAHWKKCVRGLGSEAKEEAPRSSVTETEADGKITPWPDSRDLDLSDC
# Assay: CB-2 in vitro cAMP (HTRF) assay in HEK-293 cells
# Study conditions: HEK-293 cells stably transfected with human CB2R, 250 nM Forskolin, mean where tested more than once, read-out: CB-2 (HEK_cAMP) EC50
Assay readout: EC50

Example cases with answers are listed next.
Smiles str	Target desc	EC50
O=C(O)C(=O)N1CCC(c2c3cc(C(c4ccc(Cl)cc4)c4ccc(Cl)cc4)ccc3nn2C2CC2)CC1	Human CB2R (Cannabanoid receptor 2) (Homo sapiens (Human), UniProt P34972)	> 10 µM
O=C(O)c1cccc(CN2CCC(c3n[nH]c4ccc(C(c5ccc(Cl)cc5)c5ccc(Cl)cc5)cc34)CC2)c1	Human CB2R (Cannabanoid receptor 2) (Homo sapiens (Human), UniProt P34972)	3.3 µM

The record that follows has no EC50 shown yet.
Lab book: EC50 of `O=C(c1nnn[nH]1)N1CCC(c2n[nH]c3ccc(C(c4ccc(Cl)cc4)c4ccc(Cl)cc4)cc23)CC1` noted as > 10 µM

###

# Target desc: Human CB1R (Cannabanoid receptor 1) (Homo sapiens (Human), UniProt P21554)
# Sequence (P21554 whole entry): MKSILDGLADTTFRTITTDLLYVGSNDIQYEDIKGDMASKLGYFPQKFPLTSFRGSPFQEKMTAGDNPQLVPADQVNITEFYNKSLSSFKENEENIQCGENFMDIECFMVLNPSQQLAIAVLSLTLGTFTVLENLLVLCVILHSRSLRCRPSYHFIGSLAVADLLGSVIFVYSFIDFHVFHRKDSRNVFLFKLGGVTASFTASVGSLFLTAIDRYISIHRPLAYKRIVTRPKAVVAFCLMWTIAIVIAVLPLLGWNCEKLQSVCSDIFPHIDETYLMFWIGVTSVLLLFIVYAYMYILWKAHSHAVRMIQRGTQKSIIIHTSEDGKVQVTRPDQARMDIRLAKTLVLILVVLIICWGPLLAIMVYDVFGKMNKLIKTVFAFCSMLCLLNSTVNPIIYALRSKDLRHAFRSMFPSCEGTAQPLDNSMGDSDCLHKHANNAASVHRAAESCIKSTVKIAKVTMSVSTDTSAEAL
# Assay: CB-1 in vitro cAMP (HTRF) assay in HEK-293 cells
# Study conditions: HEK-293 cells stably transfected with human CB1R, 250 nM Forskolin, mean where tested more than once, read-out: CB-1 (HEK_cAMP) EC50
Assay readout: EC50 (nM)

Smiles str	EC50 (nM)
NC(=O)c1cccc(C(=O)N2CCC(c3c4cc(C(c5ccc(Cl)cc5)c5ccc(Cl)cc5)ccc4nn3C3CC3)CC2)c1	62

(a) O=C(c1c[nH]nn1)N1CCC(c2n[nH]c3ccc(C(c4ccc(Cl)cc4)c4ccc(Cl)cc4)cc23)CC1
(b) CC(C)(C)OC(=O)N1CCC(Nc2n[nH]c3ccc(C(c4ccc(Cl)cc4)c4ccc(Cl)cc4)cc23)CC1
(c) O=C(O)C(=O)N1CCC(c2c3cc(C(c4ccc(Cl)cc4)c4ccc(Cl)cc4)ccc3nn2C2CC2)CC1
-- ask Task for the reader: rank each entry by its EC50, from the minimum upward. Write the labels, ordered according to the request.
-- reply a, b, c
(a: 49 nM, b: 162 nM, c: 617 nM)

###

# Target desc: Human CB1R (Cannabanoid receptor 1) (Homo sapiens (Human), UniProt P21554)
# Assay: CB-1 in vitro cAMP (HTRF) assay in HEK-293 cells
# Study conditions: HEK-293 cells stably transfected with human CB1R, 250 nM Forskolin, mean where tested more than once, read-out: CB-1 (HEK_cAMP) EC50
pEC50: −log10 of the molar value.
Assay readout: pEC50

Smiles str	pEC50
COc1cccc(S(=O)(=O)N2CCC(c3c4cc(C(c5ccc(Cl)cc5)c5ccc(Cl)cc5)ccc4nn3C3CC3)CC2)c1	8.15

(a) NC(=O)c1cccc(S(=O)(=O)N2CCC(c3c4cc(C(c5ccc(Cl)cc5)c5ccc(Cl)cc5)ccc4nn3C3CC3)CC2)c1
(b) O=S(=O)(c1cccc(O)c1)N1CCC(c2c3cc(C(c4ccc(Cl)cc4)c4ccc(Cl)cc4)ccc3nn2C2CC2)CC1
-- ask // which entry has the larger pEC50 value, a or b ? Pick one and reply with its label.
-- reply b
(b: 8.22, a: 7.96)

###

# Target desc: Human CB1R (Cannabanoid receptor 1) (Homo sapiens (Human), UniProt P21554)
# Assay: CB-1 in vitro cAMP (HTRF) assay in HEK-293 cells
# Study conditions: HEK-293 cells stably transfected with human CB1R, 250 nM Forskolin, mean where tested more than once, read-out: CB-1 (HEK_cAMP) EC50
pEC50: −log10 of the molar value.
Assay readout: pEC50

(A) O=C(O)CCS(=O)(=O)N1CCC(c2nn(CCO)c3ccc(C(c4ccc(Cl)cc4)c4ccc(Cl)cc4)cc23)CC1 [Compound 83]
(B) O=S(=O)(N1CCC(c2nn(C3CC3)c3ccc(C(c4ccc(Cl)cc4)c4ccc(Cl)cc4)cc23)CC1)C(F)(F)F [Compound 105]
-- ask Looking at recorded values for pEC50, does A or B come in lower? Response format: the label of the selected entry.
-- reply A
(A: 5.80, B: 8.10)
